# Target desc: SARS-CoV-2 NSP3 macrodomain (Mac1), P43 crystal form (Severe acute respiratory syndrome coronavirus 2, UniProt P0DTD1)
# Type: binding
# Assay setup: crystal soak 10 mM, P43 crystals
Property: Pandda run, overall: Modeled

Use these answered entries as a reference point.
Compound	Result
CN(C)CC(CO)Nc1ncnc2[nH]ccc12 (stereo not shown)	TRUE
CC(C)(C)CC(CO)Nc1ncnc2[nH]ccc12 (stereo not shown)	TRUE
OCC(CC(O)c1ccccc1)Nc1ncnc2[nH]ccc12 (stereo not shown)	TRUE
OC1CCCN(c2ncnc3[nH]ccc23)C1 (stereo not shown)	TRUE
OCC(Nc1ncnc2[nH]ccc12)C1CC1 (stereo not shown)	TRUE

Count: 2. Required value per item: Pandda run, overall: Modeled.
1. CCC(CC)(CO)Nc1ncnc2[nH]ccc12
2. CC(c1ccccc1)C(CO)Nc1ncnc2[nH]ccc12 (stereo not shown)

1. TRUE
2. TRUE

Answer for every listed entry: what is its Pandda run, overall: Modeled? The entries follow.
1. OCC(Nc1ncnc2[nH]ccc12)C1CCOC1 (stereo not shown)
2. C#CCC(CO)Nc1ncnc2[nH]ccc12 (stereo not shown)
3. Cc1ccccc1CC(CO)Nc1ncnc2[nH]ccc12 (stereo not shown)
4. OCC(CC1CCCC1)Nc1ncnc2[nH]ccc12 (stereo not shown)
5. CO[C@@H]1C[C@H](CO)N(c2ncnc3[nH]ccc23)C1

TRUE
TRUE
TRUE
TRUE
TRUE

// Input: O=C(O)C(F)(F)F.OCC1(Nc2ncnc3[nH]ccc23)CCCC1 . Output its Pandda run, overall: Modeled only.
TRUE

###

# Assay info: in vitro
# Assay setup: human, Caco-2
Provide the recorded Papp A→B at 1 h for the entries that follow.
One number for each entry, in ×10⁻⁶ cm/s.

Record excerpt, results attached:
Compound	Unit spec	Papp A→B at 1 h
CC(C)(O)[C@H]1CCCN1c1ncnc2[nH]ccc12 [AVI-607]	×10⁻⁶ cm/s	22
C[C@H]1CCCN(c2ncnc3[nH]ccc23)[C@H]1CO [AVI-3716]	×10⁻⁶ cm/s	25.9
Cc1c[nH]c2ncnc(NCC3(O)CCCCC3)c12 [AVI-3761]	×10⁻⁶ cm/s	21.5
O=C(Nc1ccc(C(=O)N[C@H]2c3cccc(O)c3C[C@H]2C(=O)O)cc1)NC1CC1 [AVI-92, reference compound]	×10⁻⁶ cm/s	0.04
CC(c1ccccc1)C(CO)Nc1ncnc2[nH]ccc12 (stereo not drawn) [AVI-3669]	×10⁻⁶ cm/s	19.4

Shift focus to the following entry.
Give the value of Papp A→B at 1 h reported for the following: O=C1CCCN1Nc1ncnc2[nH]c3cc(F)ccc3c12 [AVI-219, reference compound]
10.6

###

# Target desc: human macrodomain Targ1 (Homo sapiens, UniProt Q9Y530)
# Sequence (Q9Y530 with tags, fused parts or gaps): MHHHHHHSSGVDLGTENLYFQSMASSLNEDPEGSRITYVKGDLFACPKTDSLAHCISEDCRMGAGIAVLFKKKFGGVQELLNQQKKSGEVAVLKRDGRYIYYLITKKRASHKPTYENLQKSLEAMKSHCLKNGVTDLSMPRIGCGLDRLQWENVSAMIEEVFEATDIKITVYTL
# Assay info: HTRF peptide displacement assay, Targ1
# Assay type: binding
# Assay setup: dose-response; read-out: Human Targ1 HTRF assay: IC50
Property: IC50

Mol	IC50
CC(C)(O)[C@H]1CCCN1c1ncnc2[nH]ccc12	> 1000 µM

// below: IC50 requested for another compound
Report IC50 for C[C@H]1CCCN(c2ncnc3[nH]ccc23)[C@H]1CO
> 1000 µM

###

# Target desc: SARS-CoV-2 NSP3 macrodomain (Mac1), P43 crystal form (Severe acute respiratory syndrome coronavirus 2, UniProt P0DTD1)
# Assay type: binding
# Assay setup: crystal soak 10 mM, P43 crystals
Property: Hit (PanDDA run, overall)

Some molecules with recorded Hit (PanDDA run, overall):
Molecule	Hit (PanDDA run, overall)
C[C@@H]1CCN(c2ncnc3[nH]ccc23)[C@H](CO)C1 (racemic)	TRUE
OC1(CNc2ncnc3[nH]ccc23)CCC(F)(F)CC1	TRUE
CC(O)C1CCCN1c1ncnc2[nH]ccc12 (stereo not drawn)	TRUE
OC1(CNc2ncnc3[nH]ccc23)CCCC(C(F)(F)F)C1 (stereo not drawn)	TRUE
CC1(C)CCC(O)(CNc2ncnc3[nH]ccc23)CC1	TRUE
OC1(CNc2ncnc3[nH]ccc23)CCCOC1 (stereo not drawn)	TRUE
C[C@H]1CC[C@H](CO)N(c2ncnc3[nH]ccc23)C1 (racemic)	TRUE
O=C(O)C(F)(F)F.OC[C@H](Cc1ccc(O)cc1)Nc1ncnc2[nH]ccc12	TRUE

Now let's try a different one.
Find the measured Hit (PanDDA run, overall) of CC1CCCC(O)(CNc2ncnc3[nH]ccc23)C1 (stereo not drawn) and report it.
TRUE

###

# Assay info: in vitro
# Assay setup: human, Caco-2, Caco-2 ratio B-A/A-B, net flux ratio
I'd be grateful if you could share measured efflux ratio at 1 h for these entries.
Give bare numbers.

Molecule	efflux ratio at 1 h
CC(C)(O)[C@H]1CCCN1c1ncnc2[nH]ccc12	0.7
O=C1CCCN1Nc1ncnc2[nH]c3cc(F)ccc3c12 [AVI-219, reference compound]	1.6
CC(c1ccccc1)C(CO)Nc1ncnc2[nH]ccc12 (stereo not shown)	0.7

Next item in the queue.
Name the recorded efflux ratio at 1 h of the molecule listed here: O=C(Nc1ccc(C(=O)N[C@H]2c3cccc(O)c3C[C@H]2C(=O)O)cc1)NC1CC1 [AVI-92, reference compound]
40.7

###

# Target desc: SARS-CoV-2 NSP3 macrodomain (Mac1), P43 crystal form (Severe acute respiratory syndrome coronavirus 2)
# Assay type: binding
# Assay setup: PanDDA background density correction
Simple rule here: 1-BDC less than 0.2 is fulfilled, otherwise not fulfilled.

Example results:
Compound	Category
O=C1CCc2cc(C(=O)N3CC(C(=O)O)CCC34CCCC4)c(F)cc2N1 (stereo not shown) [AVI-338]	fulfilled
O=C(O)C(F)(F)F.OCC1(Nc2ncnc3[nH]ccc23)CCCC1 [AVI-3692]	not fulfilled
NC(=O)C1(O)CCN(c2ncnc3[nH]ccc23)C1 (stereo not shown) [AVI-611]	not fulfilled
OCC(Cc1ccoc1)Nc1ncnc2[nH]ccc12 (stereo not shown) [AVI-3705]	not fulfilled

Criterion: 1-BDC strictly below 0.2. Is it met by OCC(Nc1ncnc2[nH]ccc12)C1CCCC1 (stereo not shown) [AVI-3649] ?
fulfilled

Say whether its 1-BDC is strictly beneath 0.2. Entry: Cc1c[nH]c2ncnc(NCC3(O)CCSCC3)c12 [AVI-4195]
fulfilled

Item OCC(Cc1cccs1)Nc1ncnc2[nH]ccc12 (stereo not shown) [AVI-3711] : 1-BDC beneath 0.2, strictly?
not fulfilled

Say whether its 1-BDC is strictly beneath 0.2. Entry: CCC(Nc1ncnc2[nH]ccc12)C(C)(C)O (stereo not shown) [AVI-3667]
fulfilled

Is 1-BDC of CNc1ccc(NS(=O)(=O)c2cc3cccc(C)c3s2)cn1 [AVI-345] strictly below 0.2?
not fulfilled

Does the reported 1-BDC of CC(c1ccccc1)C(CO)Nc1ncnc2[nH]ccc12 (stereo not shown) [AVI-3669] stay below 0.2?
fulfilled

###

# Target desc: SARS-CoV-2 NSP3 macrodomain (Mac1) (Severe acute respiratory syndrome coronavirus 2, UniProt P0DTD1)
# Assay info: biochemical
# Assay type: binding
# Assay setup: HTRF dose-response fit, Mac1
I'd appreciate it if you could supply Hill slope values for the items below.
Answers are plain numbers.

// below: answered compounds
Compound	Hill slope
O=C(O)C(F)(F)F.OCC1(Nc2ncnc3[nH]ccc23)CCCC1	1.3
OCC1C2CCC(C2)N1c1ncnc2[nH]ccc12 (stereo not shown)	1.1
CC(C)(O)[C@H]1CCCN1c1ncnc2[nH]ccc12	1.5
CC(C)(O)C1C2CCC2CN1c1ncnc2[nH]ccc12 (stereo not shown)	1.2
O=C(O)C(F)(F)F.OCC1(Nc2ncnc3[nH]ccc23)CCC1	1.2

Working through the 5 compounds below one at a time, give Hill slope for each.
1. Cc1c[nH]c2ncnc(NCC3(O)CCC(C)(C)CC3)c12
2. OCC1C=CCCN1c1ncnc2[nH]ccc12 (stereo not shown)
3. CC(c1ccccc1)C(CO)Nc1ncnc2[nH]ccc12 (stereo not shown)
4. O=C1CCc2cc(C(=O)N3CC(C(=O)O)CCC34CCCC4)c(F)cc2N1 (stereo not shown)
5. OC1(CNc2ncnc3[nH]ccc23)CCCOC1 (stereo not shown)

1: 1.3; 2: 1.2; 3: 1.2; 4: 1.5; 5: 1.4

###

Answer each item with its documented PanDDA run, DMSO background map: 1-BDC.
# Target desc: SARS-CoV-2 NSP3 macrodomain (Mac1), P43 crystal form (Severe acute respiratory syndrome coronavirus 2, UniProt P0DTD1)
# Assay type: binding
# Assay setup: DMSO background map, event 1
Give bare numbers.

Compound	Numeric readout
OC1(CNc2ncnc3[nH]ccc23)CC2CCC1CC2 (centres unmarked)	0.14

Hey, quick one: what's PanDDA run, DMSO background map: 1-BDC for each of these?
1. CC1CCCC(O)(CNc2ncnc3[nH]ccc23)C1 (centres unmarked)
2. Cc1ccc2c(c1)CC[C@@H](C(=O)Nc1nnc3n1CCCC3)O2
3. CC(C)C1CCCN1c1ncnc2[nH]ccc12 (centres unmarked)
4. CC1(C)CCC(O)(CNc2ncnc3[nH]ccc23)CC1
5. CC1CC(C(=O)O)CN(C(=O)CSc2ccc(O)cc2)C1 (centres unmarked)
6. CC(C)(C)C1CCCN1c1ncnc2[nH]ccc12 (centres unmarked)
7. CC(C)(CO)Nc1ncnc2[nH]ccc12

1: 0.26; 2: 0.17; 3: 0.13; 4: 0.17; 5: 0.12; 6: 0.07; 7: 0.12

Provide each entry's PanDDA run, DMSO background map: 1-BDC from the list below.
1. OC1(CNc2ncnc3[nH]ccc23)CCCC(C(F)(F)F)C1 (centres unmarked)
2. CC(O)C(C)Nc1ncnc2[nH]ccc12 (centres unmarked)

[0.2, 0.17]

Tell us which PanDDA run, DMSO background map: 1-BDC value is on record for OC1(CNc2ncnc3[nH]ccc23)CCCOC1 (centres unmarked)
0.3
